TARGET OR SYSTEM: T1, interferon-alpha receptor (type I interferon receptor comprising receptor subunits IFNAR-2 and IFNAR-1) (human, UniProt P17181 28-557; P48551 27-515)
T1 sequence (looked up) 1: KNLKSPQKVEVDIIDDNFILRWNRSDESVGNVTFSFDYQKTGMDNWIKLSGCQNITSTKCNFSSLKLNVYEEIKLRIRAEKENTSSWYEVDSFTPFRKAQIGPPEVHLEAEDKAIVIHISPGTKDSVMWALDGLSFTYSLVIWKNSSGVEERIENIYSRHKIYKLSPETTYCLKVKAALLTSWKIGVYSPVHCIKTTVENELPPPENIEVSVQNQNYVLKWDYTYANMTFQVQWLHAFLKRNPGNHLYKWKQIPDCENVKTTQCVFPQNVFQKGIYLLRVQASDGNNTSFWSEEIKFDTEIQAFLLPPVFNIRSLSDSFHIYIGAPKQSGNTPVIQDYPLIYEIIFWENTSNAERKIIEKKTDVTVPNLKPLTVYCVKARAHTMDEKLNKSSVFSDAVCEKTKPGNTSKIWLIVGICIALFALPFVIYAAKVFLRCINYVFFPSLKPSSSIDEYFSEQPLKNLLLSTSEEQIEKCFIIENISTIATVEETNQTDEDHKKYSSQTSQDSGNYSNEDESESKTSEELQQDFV
T1 sequence (looked up) 2: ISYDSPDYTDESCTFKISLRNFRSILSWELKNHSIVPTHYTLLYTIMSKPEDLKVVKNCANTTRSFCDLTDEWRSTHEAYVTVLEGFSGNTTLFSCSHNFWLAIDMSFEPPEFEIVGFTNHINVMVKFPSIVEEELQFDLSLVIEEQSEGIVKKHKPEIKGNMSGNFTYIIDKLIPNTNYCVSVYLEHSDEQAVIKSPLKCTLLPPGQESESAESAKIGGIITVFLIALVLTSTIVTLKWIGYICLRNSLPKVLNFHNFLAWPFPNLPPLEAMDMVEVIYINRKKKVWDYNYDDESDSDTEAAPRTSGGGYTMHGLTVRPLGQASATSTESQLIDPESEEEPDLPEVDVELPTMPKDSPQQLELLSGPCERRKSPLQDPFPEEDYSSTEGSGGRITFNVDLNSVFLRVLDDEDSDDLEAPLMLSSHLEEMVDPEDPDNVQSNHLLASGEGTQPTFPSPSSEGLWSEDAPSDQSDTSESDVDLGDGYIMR
EXPERIMENT NOTES: cell-based or functional assay
Quick reference for HuH7/EMCV Antiviral activity relative to huIFN-alpha 2b among some binders
READOUT: HuH7/EMCV Antiviral activity relative to huIFN-alpha 2b

BINDER | REPORTED VALUE
14epi34 (ligand) CDLPQTHSLGHRRTMMLLAQMRRISLFSCLKDRHDFRFPQEEFDGNHFQKVPAISLFYEMMQQTFNLFSTKDSSAAWDETLLEKFYIELFQQMNDLEACVMQEVGVEETPLMNEDSILAVRKYFQRITLYLTEKKYSPCAWEVVRAEIMRSFSFSTNLQESLRSKE | > 8 fold
B9x14EC4 (ligand) CDLPQTHSLGHRRTMMLLAQMRRISLFSCLKDRHDFRFPQEEFDGNHFQKVQAIFLFYEMMQQTFNLFSTKDSSAAWDETLLEKFYIELFQQMNDLEACVMQEVGVEETPLMNVDSILAVRKYFQRITLYLTEKKYSPCAWEVVRAEIMRSFSFSTNLQESLRSKE | > 8 fold
14epi25 (ligand) CDLPQTHSLGHRRTMMLLAQMRRISLFSCLKDRHDFRFPQEEFDGNHLQKVQAISLFYEMMQQTFNLFSTKDSSAAWDETLLEKFYIELFQQMNDLEACVMQEVGVEETPAMNVDSILAVRKYFQRITLYLTEKKYSPCAWEVVRAEIMRSFSFSTNLQESLRSKE | > 8 fold
